Measured stability, listed per entry for reference.
tested on: compound stability in 1x PBS, percent remaining; assay: compound stability in phosphate-buffered saline, ADME assay, biochemical, 1x PBS, with and without 50% ACN, set 2 (AID 624456);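 further: percent left after two days of incubation at room temperature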
Give a bare numeral; the unit % is implied.

- COc1ccc(OC)c(-c2nnc3n2N=C(c2ccc(OC)c(OC)c2)CS3)c1: 89.6

[ask] Find the recorded stability belonging to COc1ccc(OC)c(S(=O)(=O)Nc2cnc3ccccc3c2)c1 and report it.
[reply] 89.6

[ask] And what about the molecule CC1CCCN(C(C(=O)Nc2ccc3c(c2)OCCO3)c2ccccc2)C1 (centres undefined) ?
[reply] 100

[ask] And CCCC(=O)Nc1cccc(NC(=O)c2ccccc2Br)c1 ?
[reply] 79.5

---

# maps each entry to its stability
system: compound stability in 1x PBS, percent remaining; experiment: compound stability in phosphate-buffered saline, ADME assay, biochemical, 1x PBS, with and without 50% ACN, set 2 (AID 624456); conditions: measured here: stability in PBS with 50% ACN;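 further: percent left after two days of incubation at room temperature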
Expressed in %, but write only the number.

• COc1ccc(C2CC(c3ccccc3)=NN2c2ccc(S(N)(=O)=O)cc2)cc1 (centres undefined) = 90.9
• CCCN1CNc2c(c(=O)[nH]c(=S)n2CCc2ccc(OC)c(OC)c2)C1 = 100
• Cc1ccc(S(=O)(=O)C(c2ccccc2)c2c(C)noc2C)cc1 (centres undefined) = 99.3

--- query ---
[ask] I have this compound here, O=C(CCNS(=O)(=O)c1cccc2nsnc12)N1CCN(c2ccccn2)CC1 , and I need its recorded stability.
[reply] 100
